The values you see were collected from patent US20250353859A1.

molecular target: human CCR6 (Homo sapiens); assay: Human CCR6-CRE reporter assay; format: cell-based; design: The second construct contained the open reading frame of human CCR6 in the pUNO1 backbone; host or cells: 293FT cells (transient transfection with TransIT-293); details: 293FT cells transfected with human CCR6 and CRE-luciferase; Forskolin + CCL20, 5 h; relative Log IC50; read-out: CCR6-CRE reporter (converted)
Sequence (P51684 whole entry): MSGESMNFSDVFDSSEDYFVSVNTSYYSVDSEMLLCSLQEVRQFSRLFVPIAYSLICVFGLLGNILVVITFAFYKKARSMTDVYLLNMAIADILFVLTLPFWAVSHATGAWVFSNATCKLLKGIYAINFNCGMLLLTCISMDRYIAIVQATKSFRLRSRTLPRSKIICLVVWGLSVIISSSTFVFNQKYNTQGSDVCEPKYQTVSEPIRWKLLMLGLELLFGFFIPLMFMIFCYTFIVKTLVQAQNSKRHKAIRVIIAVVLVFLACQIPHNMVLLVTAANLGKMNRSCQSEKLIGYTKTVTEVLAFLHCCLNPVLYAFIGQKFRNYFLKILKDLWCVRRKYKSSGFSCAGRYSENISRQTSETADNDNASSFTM
RECORDED ENDPOINT: IC50 (nM)

Example entries begin here.
structure_as_smiles=O=c1[nH]nc2ccc(-c3ccc(S(=O)(=O)[C@H]4CC[C@H](Nc5ccc(SC(F)(F)F)cc5)CC4)cc3)cn12 recorded_endpoint=IC50 experimental_result=79.4
structure_as_smiles=NC(=O)c1cc(-c2ccc(S(=O)(=O)N3CCC(Nc4ccc(SC(F)(F)F)cc4)CC3)cc2)ccn1 recorded_endpoint=IC50 experimental_result=63.1
structure_as_smiles=Cc1cc(-c2ccc(S(=O)(=O)N3CCC(Nc4ccc(OC(F)(F)F)cn4)CC3)cc2)cn2c(C(C)C)nnc12 recorded_endpoint=IC50 experimental_result=39.8

[I] Cc1cc(-c2ccc(S(=O)(=O)N3CCC(Nc4ccc(SC(F)(F)F)cn4)CC3)cc2)cn2c(C(C)C)cnc12
[II] Cc1cnc2ccc(-c3ccc(S(=O)(=O)[C@H]4CC[C@H](Nc5ccc(OC(F)(F)F)cc5)CC4)cc3)cn12
Given I and II , report the one with the higher recorded IC50. Give the chosen item's label as your response.
II
(II: 158 nM, I: 63.1 nM)

[A] Cc1cnc2ccc(-c3ccc(S(=O)(=O)N4CCC(Nc5ccc(OC(F)(F)F)cc5)CC4)cc3)cn12
[B] O=S(=O)(c1ccc(-c2ccccc2)cc1)N1CCC(Nc2ccc(OC(F)(F)F)cc2)CC1
[C] Cc1nnc2ccc(-c3ccc(S(=O)(=O)N4CCC(Nc5ccc(OC(F)(F)F)cn5)CC4)cc3)cn12
[D] Cc1n[nH]c2ccc(-c3ccc(S(=O)(=O)N4CCC(Nc5ccc(OC(F)(F)F)cc5)CC4)cc3)cc12
[E] Cc1cc(-c2ccc(S(=O)(=O)N3CCC(Nc4cc(OC(F)(F)F)ccn4)CC3)cc2)cn2c(C(C)C)cnc12
Order by IC50, ascending. Sort the labels as requested; that list is your answer.
C, A, D, B, E

[a] Cc1cc(-c2ccc(S(=O)(=O)N3CCC(Nc4ccc(OC(F)(F)F)cn4)CC3)cc2)cn2c(C(C)C)cnc12
[b] CC(C)c1cnc2ccc(-c3ccc(S(=O)(=O)N4CCC(Nc5ccc(SC(F)(F)F)cn5)CC4)cc3)cn12
Of the pair a and b , name the member with the lesser recorded IC50. Mark your answer with the label of the selected entry.
b

[a] N#Cc1n[nH]c2ccc(-c3ccc(S(=O)(=O)N4CCC(Nc5ccc(OC(F)(F)F)cc5)CC4)cc3)cc12
[b] O=S(=O)(c1ccc(-c2ccccc2)cc1)N1CCC(Nc2ccc(OC(F)F)cc2)CC1
Given the listed records, identify the one among a and b with higher IC50. API: response body contains the label of the selected item.
b
